These measurements were taken from ChEMBL document CHEMBL5131490.

Assay: Stabilization of [poly(dA).poly(dT)] triplex DNA (unknown origin) assessed as change in melting temperature at 10 uM by UV based assay
recorded-metric: ΔTm (°C)
Kindly answer with a numeric value in °C, unit omitted.

For the compound CCCCCN(CCCCC)CCCCOc1cc(OC)cc2oc(-c3ccc(OC)c(OC)c3)c(OC)c(=O)c12 , report ΔTm. 2.4

Output ΔTm of CCN(CC)CCCCOc1cc(OC)cc2oc(-c3ccc(OC)c(OC)c3)c(OC)c(=O)c12 14.5

Supply recorded ΔTm for COc1cc(O)c2c(=O)c(OC)c(-c3ccc(OC)c(OC)c3)oc2c1 here. 2.5

For CCCCN(CCCC)CCCCOc1cc(OC)cc2oc(-c3ccc(OC)c(OC)c3)c(OC)c(=O)c12 , write its ΔTm. 3.3

Input CCCN(CCC)CCCCOc1cc(OC)cc2oc(-c3ccc(OC)c(OC)c3)c(OC)c(=O)c12 , output reported ΔTm. 10.3

Identify measured ΔTm associated with COc1cc(OCCCCN2CCCC2)c2c(=O)c(OC)c(-c3ccc(OC)c(OC)c3)oc2c1 17.4

Name the recorded ΔTm of the item COc1cc(OCCCCN2CCN(C)CC2)c2c(=O)c(OC)c(-c3ccc(OC)c(OC)c3)oc2c1 in your answer. 12.3

Input COc1cc(OCCCCN2CCCCC2)c2c(=O)c(OC)c(-c3ccc(OC)c(OC)c3)oc2c1 , output reported ΔTm. 16.4
